Origin of the recorded values: ChEMBL document CHEMBL4312009

test: Activation of wnt pathway in mouse C2C12 cells assessed as increase in beta-catenin activity
Assay type: cell-based
pEC50: −log10 of the molar value.
Recorded measurements of pEC50, one per entry

# count of solved cases: 5
CCCCCCc1c2c(c(C)c3c1C(=O)OC3)Oc1ccccc1O2 : < 4.70
Cc1c2c(c(CCCCBr)c3c1Oc1ccccc1O3)C(=O)OC2 : < 4.70
CCCCc1c2c(c(C)c3c1C(=O)OC3)Oc1ccccc1O2 : < 4.70
CCCCCCc1c2c(c(C)c3c1C(=O)SC3)Oc1ccccc1O2 : < 5.00
CCCCCc1c2c(c(C)c3c1C(=O)OC3)Oc1ccc(OC)cc1O2 : < 5.00

We next turn to a different molecule, shown below.
Please give measured pEC50 of the following entry: "CCCCCc1c2c(c(C)c3c1Oc1cc(OC)ccc1O3)C(=O)OC2"
< 5.00
